Value source: ChEMBL document CHEMBL3856275

# Test system: Dipeptidyl peptidase 1 (Homo sapiens, UniProt P53634)
# Sequence (P53634 25-134 limits assumed): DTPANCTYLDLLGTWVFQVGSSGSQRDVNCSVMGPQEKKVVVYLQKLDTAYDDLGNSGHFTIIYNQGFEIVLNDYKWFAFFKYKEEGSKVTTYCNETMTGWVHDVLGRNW
# Sequence (P53634 231-394 limits assumed): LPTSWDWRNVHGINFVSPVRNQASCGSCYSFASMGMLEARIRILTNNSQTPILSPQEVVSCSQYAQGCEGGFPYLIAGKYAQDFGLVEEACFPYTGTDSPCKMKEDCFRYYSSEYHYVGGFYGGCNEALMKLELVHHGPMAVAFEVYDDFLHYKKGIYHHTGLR
# Sequence (P53634 395-463 limits assumed): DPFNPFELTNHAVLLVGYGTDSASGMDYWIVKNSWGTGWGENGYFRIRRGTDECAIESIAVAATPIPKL
# Assay details: Inhibition of human recombinant DPP1 using Gly-Arg-AMC as substrate preincubated for 30 mins followed by substrate addition by fluorometric assay
Property name: IC50 (nM)

INSERT INTO measurements (smiles_text, property_name, readout_unit, measured_number) VALUES
  ('N#C[C@H](Cc1ccc(-c2ccc3scnc3c2)cc1)NC(=O)[C@@H]1CNCCCO1', 'IC50', 'nM', 63.1);

I. Cc1noc2ccc(-c3ccc(C[C@@H](C#N)NC(=O)[C@@H]4CNCCCO4)cc3)cc12
II. Cn1c(=O)sc2ccc(-c3ccc(C[C@@H](C#N)NC(=O)[C@@H]4CNCCCO4)cc3)cc21
III. N#Cc1ccc(-c2ccc(C[C@@H](C#N)NC(=O)[C@H]3CNCCCO3)cc2)cc1
IV. N#C[C@H](Cc1ccc(-c2ccc3oc(=O)n(CC(F)F)c3c2)cc1)NC(=O)[C@@H]1CNCCCO1
Qu. Rank descending by IC50. Return value: ordered labels per request.
Ans. III, I, IV, II
(III: 6310 nM, I: 15.8 nM, IV: 6.31 nM, II: 2.51 nM)

----------
# Test system: Cathepsin K (Homo sapiens, UniProt P43235)
# Sequence (P43235 whole entry): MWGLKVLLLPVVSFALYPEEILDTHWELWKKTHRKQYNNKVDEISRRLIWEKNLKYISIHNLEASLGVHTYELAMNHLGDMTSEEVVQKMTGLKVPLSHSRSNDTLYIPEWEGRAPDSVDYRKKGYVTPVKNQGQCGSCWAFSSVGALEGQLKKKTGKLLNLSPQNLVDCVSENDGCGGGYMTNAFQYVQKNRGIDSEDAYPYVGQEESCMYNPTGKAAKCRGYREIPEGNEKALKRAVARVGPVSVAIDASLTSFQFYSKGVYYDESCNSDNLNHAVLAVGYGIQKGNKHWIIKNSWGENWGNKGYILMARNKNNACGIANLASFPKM
# Assay details: Inhibition of human recombinant cathepsin K
pIC50: −log10 of the molar value.
Property name: pIC50

Qu. Fill in reported pIC50 for this entry: Cn1c(=O)oc2ccc(-c3ccc(C[C@@H](C#N)NC(=O)[C@@H]4CNCCCO4)cc3)cc21
Ans. < 4.70

----------
# Assay details: Volume of distribution at steady state in Han Wistar rat at 1 mg/kg, iv and 3 mg/kg, po
# Type: ADME, organism-based
# Test parameters: in vivo, read-out: Vdss
Property name: Vd (L/kg)

INSERT INTO measurements (smiles_text, measured_number) VALUES
  ('Cn1c(=O)oc2ccc(-c3ccc(C[C@@H](C#N)NC(=O)[C@@H]4CNCCCO4)cc3)cc21', 2.5),
  ('N#Cc1ccc(-c2ccc(C[C@@H](C#N)NC(=O)[C@@H]3CNCCCO3)cc2)cc1', 2);

----------
# Test system: Cathepsin S (Homo sapiens)
# Sequence (P25774 whole entry): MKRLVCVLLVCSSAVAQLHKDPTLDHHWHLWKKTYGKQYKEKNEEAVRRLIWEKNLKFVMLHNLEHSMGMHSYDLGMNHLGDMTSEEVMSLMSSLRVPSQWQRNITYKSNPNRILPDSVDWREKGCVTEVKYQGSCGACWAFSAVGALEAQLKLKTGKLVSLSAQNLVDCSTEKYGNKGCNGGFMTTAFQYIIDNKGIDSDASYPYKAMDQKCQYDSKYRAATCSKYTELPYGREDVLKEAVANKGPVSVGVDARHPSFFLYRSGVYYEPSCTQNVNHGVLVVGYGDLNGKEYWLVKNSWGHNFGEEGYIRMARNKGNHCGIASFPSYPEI
# Assay details: Inhibition of human recombinant cathepsin S
Property name: IC50

Qu. Provide only the value of recorded IC50 for Cn1c(=O)oc2ccc(-c3ccc(C[C@@H](C#N)NC(=O)[C@@H]4CNCCCO4)cc3)cc21
Ans. > 20 µM

----------
# Test system: Cathepsin Z (Homo sapiens)
# Sequence (Q9UBR2 whole entry): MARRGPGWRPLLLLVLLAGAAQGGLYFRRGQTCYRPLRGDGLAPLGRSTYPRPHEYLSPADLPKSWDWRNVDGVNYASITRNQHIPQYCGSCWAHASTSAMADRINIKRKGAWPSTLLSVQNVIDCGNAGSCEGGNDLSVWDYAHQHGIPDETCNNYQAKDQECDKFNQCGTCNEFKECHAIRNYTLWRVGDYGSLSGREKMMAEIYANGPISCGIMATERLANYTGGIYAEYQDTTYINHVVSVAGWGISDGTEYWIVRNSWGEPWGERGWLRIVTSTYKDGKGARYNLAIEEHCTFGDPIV
# Assay details: Inhibition of human recombinant cathepsin Z
pIC50: −log10 of the molar value.
Property name: pIC50

Qu. Enter pIC50 (test system Cathepsin Z (Homo sapiens)) for Cn1c(=O)oc2ccc(-c3ccc(C[C@@H](C#N)NC(=O)[C@@H]4CNCCCO4)cc3)cc21 [BRENSOCATIB]
Ans. < 4.70

----------
# Assay details: Volume of distribution at steady state in Sprague-Dawley rat at 1 mg/kg, iv or 3 mg/kg, po
# Format: ADME, organism-based
# Test parameters: in vivo, read-out: Vdss
Property name: Vd (L/kg)

I. CCn1c(=O)oc2ccc(-c3ccc(C[C@@H](C#N)NC(=O)[C@@H]4CNCCCO4)cc3)cc21
II. Cn1c(=O)oc2ccc(-c3ccc(C[C@@H](C#N)NC(=O)[C@@H]4CNCCCO4)cc3)cc21
III. Cc1cc(-c2ccc(C[C@@H](C#N)NC(=O)[C@@H]3CNCCCO3)cc2)cc2c1oc(=O)n2C
Qu. Form: Sort by [Vd] Order [ ascending ] As an answer, provide the labels arranged in the order called for.
Ans. III, II, I
